- ASSAY OVERVIEW: Test Example 6: Clearance evaluation test
- Assay type: in vivo, Rats
- EXPERIMENTAL PARAMETERS: plasma, 1 umol/kg; rat, intravenous 1 μmol/kg; read-out: Elimination half-life (t½) (converted)
PROPERTY NAME: half-life
Give me the value, and tack the unit on after it.

[[record]]
molecular_string = "CCN1C(=O)c2c(O)c(=O)c(-c3nnc(Cc4ccc(F)cc4F)s3)cn2[C@H]2CCCC[C@H]21"
property_name = "half-life"
result_value = "15.3 h"


Next compound, please.
Lab note: measured half-life of CCN1C(=O)c2c(O)c(=O)c(C(=O)NCc3cccc(Cl)c3F)cn2[C@@H]2[C@H]1CCCC2(F)F was 10.9 h
